- ASSAYED TARGET: Full length DGKζ (in-house protein M1-V929) (Homo sapiens, UniProt Q13574)
- Construct: His (N); TEV cleavage site (N)
- Sequence (Q13574 1-929 isoform Q13574-4): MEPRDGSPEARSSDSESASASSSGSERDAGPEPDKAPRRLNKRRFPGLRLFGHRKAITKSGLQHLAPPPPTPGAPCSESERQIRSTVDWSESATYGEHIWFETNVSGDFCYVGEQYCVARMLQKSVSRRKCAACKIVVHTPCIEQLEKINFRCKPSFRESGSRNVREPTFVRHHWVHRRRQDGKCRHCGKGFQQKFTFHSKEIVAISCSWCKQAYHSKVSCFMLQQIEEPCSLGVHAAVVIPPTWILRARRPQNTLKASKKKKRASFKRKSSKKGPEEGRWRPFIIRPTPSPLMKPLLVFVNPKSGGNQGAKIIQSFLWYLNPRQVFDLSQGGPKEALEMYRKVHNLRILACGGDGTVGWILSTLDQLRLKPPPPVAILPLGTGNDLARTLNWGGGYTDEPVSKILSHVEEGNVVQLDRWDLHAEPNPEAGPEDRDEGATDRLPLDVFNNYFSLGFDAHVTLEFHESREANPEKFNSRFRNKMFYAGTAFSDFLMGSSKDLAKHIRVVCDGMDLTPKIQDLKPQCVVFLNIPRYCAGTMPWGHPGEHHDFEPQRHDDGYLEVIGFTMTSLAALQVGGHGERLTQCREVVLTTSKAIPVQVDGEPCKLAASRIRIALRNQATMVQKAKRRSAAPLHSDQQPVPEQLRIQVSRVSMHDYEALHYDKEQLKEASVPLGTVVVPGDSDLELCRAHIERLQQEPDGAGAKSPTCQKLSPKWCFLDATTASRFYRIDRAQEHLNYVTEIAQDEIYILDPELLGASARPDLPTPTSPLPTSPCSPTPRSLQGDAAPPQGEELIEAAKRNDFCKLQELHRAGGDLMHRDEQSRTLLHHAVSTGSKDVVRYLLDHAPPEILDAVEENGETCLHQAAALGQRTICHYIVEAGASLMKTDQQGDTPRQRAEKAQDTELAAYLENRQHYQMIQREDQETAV
- EXPERIMENT SUMMARY: Biochemical DGK IC50 assay (ADP-Glo, lipid micelle substrate), DGKζ
- PARTICULARS: 0.5 nM enzyme, 140 μM ATP, 80 μM DAG, 1 hour preincubation, 1 hour reaction, room temperature, read-out: IC50s for DGKζ
# binning rule on IC50: bottom (below 100 nM), middle (100 nM to below 3000 nM), top (3000 nM or more)

[in] State the band of CC[C@H]1CN(C(CCOC)c2ccc3nc(C)sc3c2)[C@H](C)CN1c1cc(=O)n(C)n2cc(CC#N)nc12 (stereo partly drawn)
[out] middle

[in] And then CC[C@@H]1CN(c2cc(=O)n(C)n3cc(C=NOC)nc23)[C@@H](C)CN1C(C)c1ccc2nccnc2c1 (single isomer, unassigned) [Compound A9a] , what is it?
[out] top

[in] And then CC[C@H]1CN(C(C)c2ccc3ncsc3c2)[C@H](CC)CN1c1cc(=O)n(C)n2cc(CC#N)nc12 (single isomer, unassigned) [Compound A53b] , what is it?
[out] middle

[in] And then CC[C@@H]1CN(c2cc(=O)n(C)n3cc(CC#N)nc23)[C@@H](COC)CN1C(C)c1ccc2nc(C)sc2n1 (single isomer, unassigned) [Compound A108a] , what is it?
[out] top

[in] And then CC[C@@H]1CN(c2cc(=O)n(C)n3cc(CC#N)nc23)[C@@H](C)CN1C(C)c1ccc2nccnc2c1 (single isomer, unassigned) [Compound A13b] , what is it?
[out] top

[in] And then CC[C@@H]1CN(c2cc(=O)n(C)n3cc(CC#N)nc23)[C@@H](C)CN1C(C)c1ccc2ncsc2n1 (single isomer, unassigned) [Compound A80a] , what is it?
[out] bottom

[in] And then CC[C@H]1CN(C(C)c2cc3scnc3cc2F)[C@H](CC)CN1c1cc(=O)n(C)n2cc(CC#N)nc12 (single isomer, unassigned) [Compound A59b] , what is it?
[out] middle

[in] And then CC[C@H]1CN(C(C)c2ccc3scnc3c2F)[C@H](CC)CN1c1cc(=O)n(C)n2cc(CC#N)nc12 (single isomer, unassigned) [Compound A66a] , what is it?
[out] bottom

[in] And then CC[C@H]1CN(C(C)c2ccc(C3CC3)nc2)[C@H](CC)CN1c1c(F)c(=O)n(C)n2cc(CC#N)nc12 (single isomer, unassigned) [Compound A73a] , what is it?
[out] bottom

[in] And then CC[C@@H]1CN(c2cc(=O)n(C)n3cc(CC#N)nc23)[C@@H](CC)CN1Cc1ccc(OC(F)(F)F)cc1 , what is it?
[out] middle

[in] And then CC[C@H]1CN(C(C)c2ccc(C(F)(F)F)cc2F)[C@H](CC)CN1c1cc(=O)n(C)n2cc(CC#N)nc12 (single isomer, unassigned) [Compound A92b] , what is it?
[out] middle

====

- ASSAYED TARGET: Full length DGKζ (in-house protein M1-V929) (Homo sapiens)
- Construct: His (N); TEV cleavage site (N)
- EXPERIMENT SUMMARY: Biochemical DGK IC50 assay (ADP-Glo, lipid micelle substrate), DGKζ
- PARTICULARS: 0.5 nM enzyme, 140 μM ATP, 80 μM DAG, 1 hour preincubation, 1 hour reaction, room temperature, read-out: IC50s for DGKζ
PARAMETER: pIC50
The read-out pIC50 is expressed as -log10 of concentration in moles per litre.

[in] Give pIC50 (Full length DGKζ (in-house protein M1-V929) (Homo sapiens)) of the following compound: CC[C@H]1CN(C(C)c2ccc3scnc3c2)[C@H](CC)CN1c1cc(=O)n(C)n2cc(CC#N)nc12 (single isomer, unassigned) [Compound A65b]
[out] 6.80

[in] And then CC[C@H]1CN(C(C)c2ccc(C(F)(F)F)cc2)[C@H](CC)CN1c1cc(=O)n(C)n2cc(CC#N)nc12 (single isomer, unassigned) [Compound A91b] , what is it?
[out] 5.84

[in] And then CC[C@H]1CN(C(C)c2ccc3nc(C)sc3c2)[C@H](CC)CN1c1cc(=O)n(C)n2cc(CC#N)nc12 (single isomer, unassigned) [Compound A56b] , what is it?
[out] 6.20

Values were extracted from patent US20240327417A1.
